This collection of values is drawn from PubChem BioAssay AID540295.

molecular target: Melanocortin receptor 4 (Homo sapiens); assay: MC4R antagonists of cAMP signaling, primary screen, cell-based, TR-FRET, antagonist arm of biased-ligand search (AID 540295); conditions: MC4R-expressing cells, MTII-stimulated cAMP, LANCE TR-FRET; at 6.5 µM; hits give high values;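 further: 0% = Melanotan II alone and 100% = Melanotan II plus saturating MCL0020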
The campaign covered roughly 360,000 compounds. About 1,700 (0.47%) were called active. The full list was thinned out, with actives kept by preference.
Each entry below lists one item and its recorded inhibition value.
endpoint.name: inhibition (%)

compound: COc1ccc(-c2n[nH]c(C)c2-c2ccccc2OC)c(O)c1
endpoint.name: inhibition
measured.value: 29.1
//
compound: CCOC(=O)CSc1nc(N2CCOCC2)c2c(c1C#N)CC(C(C)C)OC2 (stereo unspecified)
endpoint.name: inhibition
measured.value: 28.7
//
compound: COc1cc(NC(=O)c2cc(-c3ccc(F)cc3OC(C)C)n[nH]2)cc(OC)c1OC
endpoint.name: inhibition
measured.value: 19.5
//
compound: O=C(OCc1ccc([N+](=O)[O-])cc1)C1CC(=O)N(Cc2ccccc2Cl)C1 (stereo unspecified)
endpoint.name: inhibition
measured.value: 7.18
//
compound: CCOC(=O)C(C)n1cnc2sc(C)c(C)c2c1=O (stereo unspecified)
endpoint.name: inhibition
measured.value: 31.2
//
compound: CC(=O)NC12CC3CC(C1)CC(C(=O)N1CCN(C(=O)c4ccco4)CC1)(C3)C2
endpoint.name: inhibition
measured.value: -0.56
//
compound: O=C(CN1CCCC1)Nc1sc2c(c1C(=O)Nc1ccccc1)CCCC2
endpoint.name: inhibition
measured.value: -1.77
//
compound: NCCCNC(=S)NCCCN(Cc1ccc(Cl)cc1)c1ccc(Br)cn1
endpoint.name: inhibition
measured.value: 3.71
//
compound: Cc1cc(C(=O)N2CCN(c3ccccn3)CC2)c(C)o1
endpoint.name: inhibition
measured.value: -0.72
//
compound: CCOC(=O)c1cc(C)nc(S(C)(=O)=O)c1C#N
endpoint.name: inhibition
measured.value: 38.7
//
compound: Cc1ccc(NC(=O)c2c(NC(=O)CCC(=O)O)sc3c2CCCCC3)cc1
endpoint.name: inhibition
measured.value: 32
//
compound: Cc1cc(-c2csc(N)n2)c(C)n1-c1ccccc1
endpoint.name: inhibition
measured.value: 4
//
compound: CCOC(=O)COc1nc(C)cc(C(F)(F)F)c1C#N
endpoint.name: inhibition
measured.value: -2.8
//
compound: COC(=O)[C@H](Cc1ccccc1)NC(=O)[C@@H]1C[C@H]1[C@@H](NC(=O)OCc1ccccc1)c1ccccc1
endpoint.name: inhibition
measured.value: 29.7
//
compound: COc1ccc(N)cc1NC(=O)CN1CCOCC1
endpoint.name: inhibition
measured.value: -2.41
//
compound: CC(=O)Nc1ccc(Sc2ccccc2C(=O)N2CCCC2)cn1
endpoint.name: inhibition
measured.value: 32
//
compound: CCCOc1ccc(F)cc1-c1cc(C(=O)Nc2ccc(F)c(Cl)c2)[nH]n1
endpoint.name: inhibition
measured.value: 3.21
//
compound: Cc1ccc(S(=O)(=O)N2CCCC2C(=O)NCc2ccco2)cc1 (stereo unspecified)
endpoint.name: inhibition
measured.value: -0.46
//
compound: O=C(NCc1ccccc1)C1=C[C@@H](c2ccccc2)C[C@@H](OCCCCO)O1
endpoint.name: inhibition
measured.value: -12.3
//
compound: COc1ccc(Cl)cc1-c1cc(C(=O)Nc2cc(OC)c(OC)c(OC)c2)[nH]n1
endpoint.name: inhibition
measured.value: 29.8
//
compound: O=C(CCNC(=O)c1ccc([N+](=O)[O-])cc1)Nc1ccccc1N1CCOCC1
endpoint.name: inhibition
measured.value: 17.3
